READOUT KIND: melting point (°C)

O=C(Nc1nnc(Cc2ccccc2)s1)c1ccc(C2CCC3(CC2)CC3C(=O)O)cc1 (stereo not shown); 255
O=C(O)CC1CCC(c2ccc(C(=O)Nc3nnc(COc4ccccc4)s3)cc2)CC1 (stereo not shown); 261
O=C(O)CC1CCC(c2ccc(C(=O)Nc3nnc(CC4CCCC4)s3)cc2)CC1 (stereo not shown); 268
O=C(C[C@H]1CC[C@H](c2ccc(C(=O)Nc3nnc(Cc4ccccc4)s3)cc2)CC1)NCC1COCCO1 (stereo partly shown); 281

====

System: triglyceride biosynthesis
Experiment: in vitro inhibitory activity on triglyceride biosynthesis, cell test ([14C] glycerol incorporation in Chang liver cells)
Format: cell-based
Conditions: compounds incubated 30 minutes, then [14C] glycerol incorporation for 6 hours, read-out: inhibitory activity on triglyceride biosynthesis, concentration that inhibits 50% of the activity
pIC50: −log10 of the molar value.
READOUT KIND: pIC50

O=C(Nc1nnc(Cc2cccc(Cl)c2)s1)c1ccc(O[C@H]2CC[C@@H](C(=O)O)CC2)nc1 [Compound 63]; 7.07

[a] O=C(O)C[C@H]1CC[C@H](c2ccc(C(=O)Nc3nnc(COCC4CCCC4)s3)cc2)CC1 [Compound 40]
[b] O=C(Nc1nnc(Cc2ccccc2)s1)c1ccc(N[C@H]2CC[C@@H](C(=O)O)CC2)cc1 [Compound 68]
[c] O=C(O)C[C@H]1CC[C@H](c2ccc(C(=O)Nc3nnc(COC4CCCC4)s3)cc2)CC1 [Compound 37]
**Q:** Ranking field: pIC50; order: falling. Return the labels ranked in the requested order, please.
**A:** c, a, b
(c: 7.74, a: 7.29, b: 6.57)
